- system: Acetylcholinesterase (Electrophorus electricus, UniProt O42275)
- Sequence (O42275 whole entry): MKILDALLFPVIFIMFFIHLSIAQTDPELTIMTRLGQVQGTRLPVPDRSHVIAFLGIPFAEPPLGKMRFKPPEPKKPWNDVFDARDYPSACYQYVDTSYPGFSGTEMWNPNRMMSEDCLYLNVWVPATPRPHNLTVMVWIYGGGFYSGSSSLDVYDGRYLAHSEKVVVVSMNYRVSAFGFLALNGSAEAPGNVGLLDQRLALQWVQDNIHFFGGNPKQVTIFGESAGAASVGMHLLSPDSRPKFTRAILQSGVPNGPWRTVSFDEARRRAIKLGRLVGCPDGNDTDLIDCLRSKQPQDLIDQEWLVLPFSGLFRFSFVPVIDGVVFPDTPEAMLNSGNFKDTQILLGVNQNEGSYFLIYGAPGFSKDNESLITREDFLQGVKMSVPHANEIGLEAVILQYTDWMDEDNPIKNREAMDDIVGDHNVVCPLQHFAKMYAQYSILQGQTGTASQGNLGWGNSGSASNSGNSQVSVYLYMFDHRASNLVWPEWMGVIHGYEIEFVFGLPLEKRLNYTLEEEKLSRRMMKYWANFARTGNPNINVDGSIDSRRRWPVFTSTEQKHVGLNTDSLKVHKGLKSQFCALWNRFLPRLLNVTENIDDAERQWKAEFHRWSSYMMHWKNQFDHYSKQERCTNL
The entries below come with measured IC50 values attached.

input_smiles | IC50 / nM
Oc1cccc2ccc(/C=C/C3=CCN(Cc4ccccc4Br)CC3)nc12 | 490
Oc1cccc2ccc(/C=C/C3=CCN(Cc4cccc(Cl)c4)CC3)nc12 | 750
Oc1c(Cl)cc(Cl)c2ccc(/C=C/C3=CCN(Cc4cccc(C(F)(F)F)c4)CC3)nc12 | 700
Oc1c(Cl)cc(Cl)c2ccc(/C=C/C3=CCN(Cc4ccc(C(F)(F)F)cc4)CC3)nc12 | 280
Oc1cccc2ccc(/C=C/C3=CCN(Cc4cccc(C(F)(F)F)c4)CC3)nc12 | 550
